Source of measurements: paper PMC5540273

# Tested on: CLK1;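 further: KINOMEscan kinase panel screen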
# cond: concentration: 1 μM, replicates: in singlicate; n = 1
%Inh: recorded values

{"smiles": "Cc1ccc(C(=O)Nc2ccc(Nc3ccnc4cc(-c5ccccn5)ccc34)cc2O)cc1.Cl", "%Inh [%]": 13}
{"smiles": "Cc1cccc(-c2nc(Nc3ccc4[nH]ncc4c3)c3ccccc3n2)n1", "%Inh [%]": 33}
{"smiles": "Cc1cccc(-c2cc(Nc3ccncc3)c3ccccc3n2)n1", "%Inh [%]": 22}
{"smiles": "CC(C)(C)c1ccc(C(=O)Nc2cn3cc(-c4cccnc4)ccc3n2)cc1", "%Inh [%]": 84}
{"smiles": "COc1cc2ncnc(Nc3ccc4nc(-c5ccccc5)[nH]c4c3)c2cc1OC.Cl", "%Inh [%]": 14}
